Molecular target: Carbonic anhydrase 1 (Homo sapiens, UniProt P00915)
Sequence (P00915 whole entry): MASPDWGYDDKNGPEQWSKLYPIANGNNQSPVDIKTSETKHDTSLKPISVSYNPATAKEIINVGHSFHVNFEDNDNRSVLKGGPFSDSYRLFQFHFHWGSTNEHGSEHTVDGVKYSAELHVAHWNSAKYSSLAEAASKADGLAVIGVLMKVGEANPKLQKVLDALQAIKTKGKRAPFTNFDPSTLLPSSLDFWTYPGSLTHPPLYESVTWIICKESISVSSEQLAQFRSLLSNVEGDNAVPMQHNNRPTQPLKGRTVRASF
Assay: Inhibition of human recombinant carbonic anhydrase 1 preincubated for 15 mins by stopped flow CO2 hydration method
pKi: −log10 of the molar value.
property_name: pKi

Cc1ccccc1S(=O)(=O)NC(=O)NCCc1ccc(S(N)(=O)=O)cc1; 7.19
NS(=O)(=O)c1ccc(CCNC(=O)NS(=O)(=O)c2ccc(F)cc2)cc1; 7.08
Cc1ccc(S(=O)(=O)NC(=O)NCCc2ccc(S(N)(=O)=O)cc2)cc1; 7.17

Origin of values: ChEMBL document CHEMBL3351299
